Assay Target: Aβ42
Test Method Notes: SPR
pKd: −log10 of the molar value.
Readout: pKd

1. HGVVFLHVTYV [Spike1058 (1058HGVVFLHVTYV1068), fragment of the SARS-CoV-2 spike protein] :: 7.08

Entry source: paper PMC10480042
